Hey, just so you know, these numbers are from PubChem BioAssay AID686978.

Test: qHTS for Inhibitors of human tyrosyl-DNA phosphodiesterase 1 (TDP1): qHTS in cells in absence of CPT; note: % is set by controls: 0 for no effect and ±100 for the full control effect; nearly all actives have a fitted effect of over 55% in size
Details: DT40 Tdp1-/- hTDP1 cells, no CPT, ATP luminescence, 48 h
Protocol: Human tyrosyl-DNA phosphodiesterase 1 (TDP1) is a novel repair gene, and we propose to use it as a new target for anticancer drug development. […] For the primary screen, Tdp1-/-;hTDP1 cells will be exposed to small molecules in the presence or absence of CPT, and their growth kinetics will be evaluated after 48 hours by measuring ATP activity. […] The hit compounds will then be evaluated in the presence or absence of CPT using Tdp1-/- cells. […]
In all, about 420,000 compounds went through this assay and about 64,000 (15%) were called active. Another 27% or so got no clear call; they are omitted. Calls come from the whole dose curve; as a rule, active = well fitted inhibition curve with a large enough effect; inconclusive = small, poorly fitted or top-dose-only effect; inactive = flat fitted curve, though single readings scatter. Not all results are given here.
Hi there, use one of these labels in your reply, thanks! 1 = active, -1 = inactive

Recorded results for 6 molecules are shown here.
> print(dat)
                                   molecule  class.name
1  O=C(NCc1ccc(F)cc1)C1CCN(C(=O)Nc2ccc(F)cc2)CC1          -1
2  O=C(c1ccc2c(c1)N(Cc1ccccc1F)C(=O)c1ccccc1S2(=O)=O)N1CCOCC1          -1
3  CC1CC1C(=O)OCC(=O)Nc1cccc(F)c1 (centres undefined)          -1
4  CC(=O)C[C@@H](O)CC(=O)[C@H]1OC(=O)CCCCCCc2ccccc21          -1
5          CCc1cc(C(=O)Nc2nnc(C3CC3)s2)sc1C          -1
6                COc1ccc(CNC(=O)C2CCCC2)cc1          -1

QUERY: Which outcome did this test record for the molecule `O=C(/C=C/[C@H]1O[C@@H](n2cnc3c(NC(=O)c4ccccc4)ncnc32)[C@H](O)[C@@H]1O)NCc1ccccc1` ?
RESULT: -1

QUERY: Which outcome did this test record for the molecule `COc1ccc(S(=O)(=O)N2CCC(C(=O)NCc3ccco3)CC2)cc1C` ?
RESULT: -1
